So I've got a bunch of molecules here, and I need their IC50 values.
- Measured target: gp120-CD4 interaction (Human immunodeficiency virus type 1 group M subtype B, UniProt P03375)
- Method description: biochemical
Give the value, in units of nM, as a plain number.

Bench note: what IC50 did COc1ccc(-c2ccc(CNC(=O)COCCOCCOCCOCCn3cc(COCCOCCOCCOCCNc4ccc([N+](=O)[O-])cc4[N+](=O)[O-])nn3)o2)c2[nH]cc(C(=O)C(=O)N3CCN(C(=O)c4ccncc4)CC3)c12 show?
4700

Bench note: what IC50 did COc1ccc(-c2ccc(CNC(=O)COCCOCCOCCOCCn3cc(COCCOCCOCCOCCNc4ccc([N+](=O)[O-])cc4[N+](=O)[O-])nn3)o2)c2[nH]cc(C(=O)C(=O)N3CCN(C(=O)c4ccc(C)cc4)CC3)c12 show?
447

Bench note: what IC50 did COc1ccc(-c2ccc(CNC(=O)COCCOCCOCCOCCn3cc(COCCOCCOCCOCCNc4ccc([N+](=O)[O-])cc4[N+](=O)[O-])nn3)o2)c2[nH]cc(C(=O)C(=O)N3CCN(C(=O)c4ccc(CO)cc4)CC3)c12 show?
422

----------
So I've got a bunch of molecules here, and I need their log10(IC50) values.
- Tested on: MT-2
- Method description: MT-2 activity
- Type: cell-based
- Experimental parameters: Homo sapiens, MT2
Each number you see is log10 of IC50, and the unit inside the log is nM.

Bench note: what log10(IC50) did COc1ccc(-c2ccc(CNC(=O)COCCOCCOCCOCCn3cc(COCCOCCOCCOCCNc4ccc([N+](=O)[O-])cc4[N+](=O)[O-])nn3)o2)c2[nH]cc(C(=O)C(=O)N3CCN(C(=O)c4ccc(C)cc4)CC3)c12 show?
1.40

Bench note: what log10(IC50) did COc1ccc(-c2ccc(CNC(=O)COCCOCCOCCOCCn3cc(COCCOCCOCCOCCNc4ccc([N+](=O)[O-])cc4[N+](=O)[O-])nn3)o2)c2[nH]cc(C(=O)C(=O)N3CCN(C(=O)c4ccccn4)CC3)c12 show?
1.68

Bench note: what log10(IC50) did COc1ccc(-c2ccc(CNC(=O)COCCOCCOCCOCCn3cc(COCCOCCOCCOCCNc4ccc([N+](=O)[O-])cc4[N+](=O)[O-])nn3)o2)c2[nH]cc(C(=O)C(=O)N3CCN(C(=O)c4cccc(O)c4)CC3)c12 show?
1.95

Bench note: what log10(IC50) did COc1ccc(-c2ccc(CNC(=O)COCCOCCOCCOCCn3cc(COCCOCCOCCOCCNc4ccc([N+](=O)[O-])cc4[N+](=O)[O-])nn3)o2)c2[nH]cc(C(=O)C(=O)N3CCN(C(=O)c4ccncc4)CC3)c12 show?
3.97

Bench note: what log10(IC50) did COc1ccc(-c2ccc(CNC(=O)COCCOCCOCCOCCn3cc(COCCOCCOCCOCCNc4ccc([N+](=O)[O-])cc4[N+](=O)[O-])nn3)o2)c2[nH]cc(C(=O)C(=O)N3CCN(C(=O)c4ccccc4O)CC3)c12 show?
2.30

----------
So I've got a bunch of molecules here, and I need their IC50 values.
- System: MT-2
- Method description: MT-2 activity
- Type: cell-based
- Experimental parameters: Homo sapiens, MT2

Bench note: what IC50 did COc1ccc(-c2ccc(CNC(=O)COCCOCCOCCOCCn3cc(COCCOCCOCCOCCNc4ccc([N+](=O)[O-])cc4[N+](=O)[O-])nn3)o2)c2[nH]cc(C(=O)C(=O)N3CCN(C(=O)c4ccccc4C)CC3)c12 show?
~25 µM

Bench note: what IC50 did COc1ccc(-c2ccc(CNC(=O)COCCOCCOCCOCCn3cc(COCCOCCOCCOCCNc4ccc([N+](=O)[O-])cc4[N+](=O)[O-])nn3)o2)c2[nH]cc(C(=O)C(=O)N3CCN(C(=O)c4cccc(C)c4)CC3)c12 show?
~0.6 µM

Bench note: what IC50 did COc1ccc(-c2ccc(CNC(=O)COCCOCCOCCOCCn3cc(COCCOCCOCCOCCNc4ccc([N+](=O)[O-])cc4[N+](=O)[O-])nn3)o2)c2[nH]cc(C(=O)C(=O)N3CCN(C(=O)c4ccc(CO)cc4)CC3)c12 show?
~1 µM
